Data credit: patent US20180057604A1

# Subject Of Test: T1, cyno TfR extracellular domain (analogous construct to human TfR ecd) (cynomolgus monkey, UniProt Q5RDH6 87-760 (Pongo abelii entry))
# T1 construct: also called cynoTfR ecd
# T1 chain: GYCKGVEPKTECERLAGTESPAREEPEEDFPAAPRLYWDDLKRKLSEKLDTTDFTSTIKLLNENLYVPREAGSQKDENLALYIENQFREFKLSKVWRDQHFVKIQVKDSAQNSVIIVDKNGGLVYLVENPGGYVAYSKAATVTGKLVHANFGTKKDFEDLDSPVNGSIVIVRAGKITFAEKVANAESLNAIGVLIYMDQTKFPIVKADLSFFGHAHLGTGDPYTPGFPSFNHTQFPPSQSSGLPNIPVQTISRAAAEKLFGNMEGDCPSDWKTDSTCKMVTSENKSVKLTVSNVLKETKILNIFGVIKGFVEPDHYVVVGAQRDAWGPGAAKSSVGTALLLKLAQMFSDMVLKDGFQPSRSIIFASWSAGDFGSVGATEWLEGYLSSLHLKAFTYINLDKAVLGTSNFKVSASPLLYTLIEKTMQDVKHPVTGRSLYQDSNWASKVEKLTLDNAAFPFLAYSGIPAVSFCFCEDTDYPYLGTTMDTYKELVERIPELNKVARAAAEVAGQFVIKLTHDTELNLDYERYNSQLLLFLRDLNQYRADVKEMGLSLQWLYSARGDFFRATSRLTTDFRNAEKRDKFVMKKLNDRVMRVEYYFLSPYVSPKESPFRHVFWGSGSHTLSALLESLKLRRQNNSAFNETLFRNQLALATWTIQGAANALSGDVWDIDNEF
# Experimental Details: SPR, TfR captured by anti-His, Fab injected;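 also: single cycle kinetics with a Fab dilution series, fitted by a one-to-one Langmuir model or a steady state model, KD taken as koff over kon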
For each entry below, report its kon value.
Answers are plain numbers, in M⁻¹ s⁻¹.

A selection of reference data follows.
{"Binder": "Hu15G11.v3.Fab (Fab, V domains shown, Fab) VH: EVQLVQSGAEVKKPGASVKVSCKASGYTFTSYWMHWVRQAPGQRLEWMGEINPTNGRTNYIEKFKSRVTITRDTSASTAYMELSSLRSEDTAVYYCARGTRAYHYWGQGTMVTVSS VL: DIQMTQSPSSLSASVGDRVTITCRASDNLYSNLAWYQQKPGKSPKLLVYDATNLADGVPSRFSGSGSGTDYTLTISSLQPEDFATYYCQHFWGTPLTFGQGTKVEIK", "Endpoint Label": "kon", "Numeric Value": 483000}
{"Binder": "Hu15G11.v5.Fab (Fab, V domains shown, Fab) VH: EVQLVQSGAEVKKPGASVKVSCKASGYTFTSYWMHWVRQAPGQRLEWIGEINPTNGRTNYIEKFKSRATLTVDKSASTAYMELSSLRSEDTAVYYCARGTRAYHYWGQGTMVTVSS VL: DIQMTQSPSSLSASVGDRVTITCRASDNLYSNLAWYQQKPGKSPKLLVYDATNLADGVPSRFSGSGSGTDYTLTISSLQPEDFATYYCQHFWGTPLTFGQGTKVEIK", "Endpoint Label": "kon", "Numeric Value": "1.41e+06"}

Next binder, kon to be filled in.
Which measured kon value corresponds to Mu7A4.Fab (Fab, V domains shown, Fab; also called mouse 7A4 Fab) VH: QVQLQQSGPELVRPGVSVKISCKGSGYTFTDYAMHWVKQSHAKSLEWIGGISTYFGRTNYNQKFKGRATMTVDKSSSTAYMELARLTSEDSALYYCARGLSGNYVMDYWGQGTSVTVSS VL: DIVLTQSPASLAVSLGQRATISCRASESVDDYGNSFMHWYQQKPGQPPKLLIYRASNLESGIPARFSGSGSRTDFTLTINPVEADDVATYYCQQSNEAPPTFGGGTKLEIR ? 1.14e+06
